Data provenance is patent US7488743B2.

target: cells expressing human oxytocin receptors (Homo sapiens, UniProt P30559); test: measurement of intracellular calcium (agonist or antagonist nature); format: cell-based
Sequence (P30559 whole entry): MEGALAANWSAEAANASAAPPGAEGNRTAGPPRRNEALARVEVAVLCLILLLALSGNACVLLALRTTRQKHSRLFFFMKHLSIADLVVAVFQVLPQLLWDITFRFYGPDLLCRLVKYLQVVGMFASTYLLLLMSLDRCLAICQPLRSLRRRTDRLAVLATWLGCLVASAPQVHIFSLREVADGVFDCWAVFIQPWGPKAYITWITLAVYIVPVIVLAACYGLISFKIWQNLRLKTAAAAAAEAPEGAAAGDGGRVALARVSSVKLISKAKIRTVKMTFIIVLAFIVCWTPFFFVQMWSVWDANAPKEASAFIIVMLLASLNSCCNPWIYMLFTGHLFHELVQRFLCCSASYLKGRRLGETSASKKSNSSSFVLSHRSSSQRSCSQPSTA

[
  {
    "COMPOUND": "CCN(Cc1ccc[n+]([C@@H]2O[C@H](C(=O)O)[C@@H](O)[C@H](O)[C@H]2O)c1)C(=O)c1ccc(Cl)c(C2(C)C(=O)N(Cc3ccc(OC)cc3OC)c3ccc(Cl)cc32)c1 (stereo partly shown)",
    "STUDY_TARGET": "cells expressing human oxytocin receptors (Homo sapiens, UniProt P30559)",
    "IC50": "3 nM"
  }
]
